Source listed as patent US4906663A.

System: platelet aggregation
Assay: Ex vivo inhibition of ADP-induced platelet aggregation 5 hours after oral administration
Type: in vivo
Details: Cavia porcellus, blood taken 5 hours after administration, guinea-pigs, read-out: Ex vivo MED (minimum dose showing significant inhibition of platelet aggregation)
Description: Platelet aggregation study was carried out by a tarbidimetric method of Born (G. V. R. Born; Nature, 194, 927, 1962) using an aggregometer. Citrated blood obtained from guinea-pigs of Hartley strain was centrifuged at 120 g for 10 minutes and the supernatant, Platelet-rich plasma (PRP), was separated. In in vitro experiments, PRP was preincubated with test compounds at 37° C. for 10 minutes and then aggregation was induced by adding ADP (1 μM). […]
measuredProperty: minimal effective dose (mg/kg)
Output spec: scalar in mg/kg, unitless text.

Task item: State, in one line, measured minimal effective dose of CCCC[C@H](C)C[C@H](O)/C=C/[C@H]1[C@H](O)CC(=O)[C@@H]1CC(F)CC/C=C/C(=O)O (stereo partly drawn) [APG - 29, Δ^2-(17S)-17,20-dimethyl-6-fluoro-PGE1]
Reply: 0.1

Task item: State, in one line, measured minimal effective dose of CCCC[C@H](C)C[C@H](O)/C=C/[C@H]1[C@H](O)CC(=O)[C@H]1CC(F)CCCCC(=O)O (single isomer, unassigned; ent-17)
Reply: 3

Task item: State, in one line, measured minimal effective dose of CCCC[C@H](C)C[C@H](O)/C=C/[C@H]1[C@H](O)CC(=O)[C@@H]1CC(F)CCCCC(=O)O (stereo partly drawn) [APG - 24, (17S)-17,20-dimethyl-6-fluoro-PGE1]
Reply: 0.3

Task item: State, in one line, measured minimal effective dose of CCCC[C@H](C)C[C@H](O)/C=C/[C@H]1[C@H](O)CC(=O)[C@H]1CC(F)CC/C=C/C(=O)O (stereo partly shown)
Reply: 1
